I'd be grateful if you could share measured MIC for these entries.
test system: Streptococcus pyogenes; assay: Antibacterial activity against erythromycin A-susceptible Streptococcus pyogenes B0542 by agar microdilution method

Here are 2 compounds. What values of MIC were reported for them?
1. CC[C@H]1OC(=O)[C@H](C)C(=O)[C@H](C)[C@@H](O[C@@H]2O[C@H](C)C[C@H](N(C)C)[C@H]2O)[C@](C)(OCC(O)CNCCCCc2cccnc2)C[C@@H](C)NC(=O)[C@H](C)[C@@H](O)[C@]1(C)O (some centres not stated)
2. CC[C@H]1OC(=O)[C@H](C)C(=O)[C@H](C)[C@@H](O[C@@H]2O[C@H](C)C[C@H](N(C)C)[C@H]2O)[C@](C)(OCC(O)CN2CCN(c3cnc4ccccc4c3)CC2)C[C@@H](C)NC(=O)[C@H](C)[C@@H](O)[C@]1(C)O (some centres not stated)

Response:
1: ≤ 0.125 µg/mL; 2: ≤ 0.125 µg/mL

Here are 5 compounds. What values of MIC were reported for them?
1. CC[C@H]1OC(=O)[C@H](C)C(=O)[C@H](C)[C@@H](O[C@@H]2O[C@H](C)C[C@H](N(C)C)[C@H]2O)[C@](C)(OCC(O)CNCCCCc2ccccc2)C[C@@H](C)NC(=O)[C@H](C)[C@@H](O)[C@]1(C)O (mixture of isomers)
2. CC[C@H]1OC(=O)[C@H](C)C(=O)[C@H](C)[C@@H](O[C@@H]2O[C@H](C)C[C@H](N(C)C)[C@H]2O)[C@](C)(OC[C@H](O)CNCCNc2ccc3ncccc3c2)C[C@@H](C)NC(=O)[C@H](C)[C@@H](O)[C@]1(C)O
3. C=CCO[C@]1(C)C[C@@H](C)NC(=O)[C@H](C)[C@@H](O)[C@](C)(O)[C@@H](CC)OC(=O)[C@H](C)C(=O)[C@H](C)[C@H]1O[C@@H]1O[C@H](C)C[C@H](N(C)C)[C@H]1O
4. CC[C@H]1OC(=O)[C@H](C)C(=O)[C@H](C)[C@@H](O[C@@H]2O[C@H](C)C[C@H](N(C)C)[C@H]2O)[C@](C)(OCC(O)CNCc2ccc3ncccc3c2)C[C@@H](C)NC(=O)[C@H](C)[C@@H](O)[C@]1(C)O (some centres not stated)
5. CC[C@H]1OC(=O)[C@H](C)C(=O)[C@H](C)[C@@H](O[C@@H]2O[C@H](C)C[C@H]([N+](C)(C)[O-])[C@H]2O)[C@](C)(OCC2CO2)C[C@@H](C)NC(=O)[C@H](C)[C@@H](O)[C@]1(C)O (some centres not stated)

Response:
0.25 µg/mL
≤ 0.125 µg/mL
4 µg/mL
≤ 0.125 µg/mL
> 64 µg/mL

* * *

I'd be grateful if you could share measured MIC for these entries.
test system: Streptococcus pyogenes; assay: Antibacterial activity against constitutive macrolide-lincosamide-streptogramin B-resistant Streptococcus pyogenes B0544 by agar microdilution method; assay type: functional
One number for each entry, in µg/mL.

Before answering, review these 5 worked examples.
Request: # MIC lookup, item CC[C@H]1OC(=O)[C@H](C)C(=O)[C@H](C)[C@@H](O[C@@H]2O[C@H](C)C[C@H](N(C)C)[C@H]2O)[C@](C)(OCC(O)CNCCCCc2ccccc2)C[C@@H](C)NC(=O)[C@H](C)[C@@H](O)[C@]1(C)O (mixture of isomers)
Response: 8

Request: Now give it for CCOc1ccccc1N1CCN(CC(O)CO[C@]2(C)C[C@@H](C)NC(=O)[C@H](C)[C@@H](O)[C@](C)(O)[C@@H](CC)OC(=O)[C@H](C)C(=O)[C@H](C)[C@H]2O[C@@H]2O[C@H](C)C[C@H](N(C)C)[C@H]2O)CC1 (mixture of isomers) too.
Response: 16

Request: Now give it for CC[C@H]1OC(=O)[C@H](C)C(=O)[C@H](C)[C@@H](O[C@@H]2O[C@H](C)C[C@H](N(C)C)[C@H]2O)[C@](C)(OCC=Cc2cnc3ccccc3c2)C[C@@H](C)C(=O)[C@H](C)[C@H]2NC(=O)O[C@@]21C too.
Response: 1

Request: Now give it for CC[C@H]1OC(=O)[C@H](C)C(=O)[C@H](C)[C@@H](O[C@@H]2O[C@H](C)C[C@H](N(C)C)[C@H]2O)[C@](C)(OCC(O)CNc2ccc3ncccc3c2)C[C@@H](C)NC(=O)[C@H](C)[C@@H](O)[C@]1(C)O (stereo partly drawn) too.
Response: 8

Request: Now give it for CC[C@H]1OC(=O)[C@H](C)C(=O)[C@H](C)[C@@H](O[C@@H]2O[C@H](C)C[C@H](N(C)C)[C@H]2O)[C@](C)(OCC(O)CNCCCCc2cccnc2)C[C@@H](C)NC(=O)[C@H](C)[C@@H](O)[C@]1(C)O (stereo partly drawn) too.
Response: 4

New cases:
Request: # MIC lookup, item CC[C@H]1OC(=O)[C@H](C)C(=O)[C@H](C)[C@@H](O[C@@H]2O[C@H](C)C[C@H](N(C)C)[C@H]2O)[C@](C)(OCC(O)CN2CCN(c3ccc([N+](=O)[O-])cc3)CC2)C[C@@H](C)NC(=O)[C@H](C)[C@@H](O)[C@]1(C)O (stereo partly drawn)
Response: 8
